# target.or.system: TRPA1 (mTRPA1) (Mus musculus, UniProt Q8BLA8)
# Sequence (Q8BLA8 whole entry): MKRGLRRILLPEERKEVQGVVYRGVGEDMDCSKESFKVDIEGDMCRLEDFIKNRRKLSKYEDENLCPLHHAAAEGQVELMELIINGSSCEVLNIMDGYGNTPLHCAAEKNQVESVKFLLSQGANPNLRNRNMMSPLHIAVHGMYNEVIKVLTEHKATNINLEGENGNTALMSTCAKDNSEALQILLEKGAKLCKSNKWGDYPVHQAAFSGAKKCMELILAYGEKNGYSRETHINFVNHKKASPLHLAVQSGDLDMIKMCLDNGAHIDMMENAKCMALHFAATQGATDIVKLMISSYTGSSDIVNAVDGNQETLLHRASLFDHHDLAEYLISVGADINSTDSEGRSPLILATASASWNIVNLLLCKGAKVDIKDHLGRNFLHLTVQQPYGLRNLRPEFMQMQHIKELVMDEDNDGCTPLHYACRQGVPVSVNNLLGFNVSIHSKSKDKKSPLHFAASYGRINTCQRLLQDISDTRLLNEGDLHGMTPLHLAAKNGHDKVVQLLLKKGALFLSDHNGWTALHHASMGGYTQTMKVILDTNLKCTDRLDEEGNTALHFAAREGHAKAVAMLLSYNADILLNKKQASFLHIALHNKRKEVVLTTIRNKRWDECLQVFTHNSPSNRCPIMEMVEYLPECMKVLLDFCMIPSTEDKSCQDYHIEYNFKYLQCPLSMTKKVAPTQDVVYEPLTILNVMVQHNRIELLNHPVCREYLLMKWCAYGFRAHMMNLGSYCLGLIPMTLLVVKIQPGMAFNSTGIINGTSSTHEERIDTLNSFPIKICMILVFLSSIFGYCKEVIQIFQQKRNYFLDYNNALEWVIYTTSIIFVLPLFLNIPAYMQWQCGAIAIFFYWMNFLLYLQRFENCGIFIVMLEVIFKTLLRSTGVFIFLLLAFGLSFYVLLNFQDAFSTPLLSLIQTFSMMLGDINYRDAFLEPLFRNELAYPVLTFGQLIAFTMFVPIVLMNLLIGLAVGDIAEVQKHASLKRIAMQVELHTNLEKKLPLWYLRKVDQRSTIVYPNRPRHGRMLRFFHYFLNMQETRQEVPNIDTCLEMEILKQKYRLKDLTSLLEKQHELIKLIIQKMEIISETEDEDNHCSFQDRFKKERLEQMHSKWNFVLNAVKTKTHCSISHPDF
# assay.notes: whole-cell patch clamp, agonist concentration-response in transfected HEK293 cells; no current in untransfected cells
measured.property: pEC50
Answers are plain numbers, as −log10 of the molar value.

Prompt: GET pEC50 where system = TRPA1 (mTRPA1) (Mus musculus, UniProt Q8BLA8) and item = C=CCN=C=S [AITC, allyl isothiocyanate]
Completion: 4.21

###

# target.or.system: TRPA1 (mTRPA1) (Mus musculus, UniProt Q8BLA8)
# assay.notes: whole-cell patch clamp, inhibition of AITC-induced current in transfected HEK293 cells
measured.property: IC50

Prompt: Write down the reported IC50 (system: TRPA1 (mTRPA1) (Mus musculus, UniProt Q8BLA8)) of Oc1ccc(/C=C/c2cc(O)cc(O)c2)cc1 [RES, 3,5,4’ - trihydroxy-trans-stilbene]
Completion: ~750 nM
